# EXPERIMENTAL_DETAILS: Pharmacokinetics by oral administration and intravenous injection in CD mice
# Assay type: in vivo
# CONDITION_CONTEXT: male, CD, mouse, plasma, iv, 2 mg/kg, intravenous injection, 2.0 mg/kg, read-out: Apparent volume of distribution, Vdss
READOUT_TYPE: Vd (L/kg)
Unit L/kg implied. Number only.

Query: What value of Vd has been reported for the following molecule? C=C(F)C(=O)N1CCN(c2nc(OC[C@@]34CCCN3C[C@H](F)C4)nc3c2CO[C@H](c2c(F)c(N)cc(C)c2C(F)(F)F)C3)C[C@@H]1CC#N [Compound of formula (I)]
Response: 3.9
